Hello, the source for this data is patent US12466831B2, in case you need it.

Target: human A2b adenosine receptor (Homo sapiens, UniProt P29275)
Construct: membranes made from them
Sequence (P29275 whole entry): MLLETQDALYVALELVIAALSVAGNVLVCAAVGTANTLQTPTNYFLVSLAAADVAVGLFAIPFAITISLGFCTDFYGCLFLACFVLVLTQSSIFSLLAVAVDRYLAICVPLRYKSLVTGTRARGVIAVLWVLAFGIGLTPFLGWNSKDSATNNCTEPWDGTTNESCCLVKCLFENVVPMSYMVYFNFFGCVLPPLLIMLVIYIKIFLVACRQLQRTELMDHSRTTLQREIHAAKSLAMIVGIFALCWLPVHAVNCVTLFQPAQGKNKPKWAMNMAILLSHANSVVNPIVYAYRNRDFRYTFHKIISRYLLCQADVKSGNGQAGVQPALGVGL
Test: A2b binding affinity, radioligand filtration binding assay
Settings: tritiated proprietary A2b antagonist, HEK293 membranes expressing human A2b
Attribute Measured: IC50 (µM)
Provide the reading as a plain figure in µM.

Enquiry: State the recorded IC50 for this entry: Cc1c(-c2ncco2)nc(N)c2nc(C3CCC(C)(O)C3)nn12 (single isomer, unassigned) [Example 8.7]
Return: 2.59

Enquiry: Consider next the compound "Cc1c(-c2ncco2)nc(N)n2nc([C@H]3CC[C@@H](C)N(c4cnn(CC(C)(C)O)c4)C3)nc12" in the same way.
Return: 1.31

Enquiry: Consider next the compound "Cc1c(-c2ncco2)nc(N)n2nc([C@@H]3CCCN(c4cnn(CC(F)(F)F)c4)C3)nc12" in the same way.
Return: 0.0344

Enquiry: Consider next the compound Cc1c(-c2cccc(F)c2)nc(N)c2nc(C3CCCC(C)(O)C3)nn12 (single isomer, unassigned) [Example 8.10-1] in the same way.
Return: 2.64

----------
Target: human A2b adenosine receptor (Homo sapiens)
Construct: membranes made from them
Assay: A2b binding affinity, radioligand filtration binding assay
Conditions: tritiated proprietary A2b antagonist, HEK293 membranes expressing human A2b
Assignment: determine reported IC50 for the given molecules.
Provide the reading as a plain figure in nM.

Enquiry: State the recorded IC50 for this entry: CCn1cc(N2C[C@H](c3nc4c(C)c(-c5ncco5)nc(N)n4n3)CC[C@@H]2C)cn1 [Example 2.14]
Return: 17.6

Enquiry: Consider next the molecule CCn1cc(N2C[C@H](c3nc4c(C)c(-c5cccc(F)c5)nc(N)n4n3)CC[C@@H]2C)cn1 [Example 2.16] in the same way.
Return: 82.6

Enquiry: Consider next the molecule Cc1c(-c2ncco2)nc(N)n2nc(C3CCCC(C)(O)C3)nc12 (single isomer, unassigned) [Example 8.2-2] in the same way.
Return: 7310
